// provenance: PubChem BioAssay AID1159580

Procedure text: chemical genetic growth profiling, strain panel (AID 1159580);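 also: tested at 20 µM; growth read once vehicle control cultures reached saturation at 30 °C; 1 = growth at the plate median or of vehicle wells; lower values mean less growth of the strain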
Setup conditions: S. cerevisiae deletion strains, growth OD, locus YDL134C, strain PPH21, stronger effect = lower value
Hit rate of the full screen: of about 5,500 compounds, about 2,000 (36%) were called active. About 18% were inconclusive and are not listed. This is one part of the list.

Compound	normalized growth
COc1c(C2COc3cc4c(cc3C2=O)CC(O)C(C)(C)O4)ccc2c1CCC(C)(C)O2 (centres undefined)	1.05
O=C(O)CNCP(=O)(O)O	1.01
O=C(O)c1cc(=O)c(O)c2c(O)c(O)ccc2c1	1
CC(C)c1nc2ccccc2[nH]1	1.02
Nc1ccc(S(=O)(=O)Nc2nccs2)cc1	1.01
CC[C@@H](C(=O)O)[C@@H]1O[C@@H]([C@@H](C)[C@H](O)[C@H](C)C(=O)[C@H](CC)[C@H]2O[C@]3(C=C[C@@H](O)[C@]4(CC[C@@](C)(C5CC[C@](O)(CC)[C@H](C)O5)O4)O3)[C@H](C)C[C@@H]2C)[C@@H](C)C[C@H]1C (some centres undefined)	0.313
C[C@@H]1C[C@@H]([C@H](O)CC2CC(=O)NC(=O)C2)C(=O)[C@@H](C)C1	0.0498
COc1cc(/C=C/C(=O)O)cc(OC)c1OC	1.02
c1cc2c(cc1[C@H]1OC[C@H]3[C@@H]1CO[C@H]3c1ccc3c(c1)OCO3)OCO2	0.881
CC(Cc1ccc(O)c(O)c1)(NN)C(=O)O (centres undefined)	1.04
Nc1nccs1	0.983
CC(C)(C)c1nc(N)sc1Br	0.986
Cc1cccc(CN2CCN(C(c3ccccc3)c3ccc(Cl)cc3)CC2)c1 (centres undefined)	0.806
CN(Cc1cc(Br)cc(Br)c1N)C1CCCCC1	1
CCNS(=O)(=O)c1cc(Cl)sc1Cl	1.01
CCOC(=O)C1=C[C@]2(CC)CCCN3CCc4c(n1c1ccccc41)[C@@H]32	0.998
CCC(=O)c1ccc(-c2ccccc2)cc1	0.963
O=C(O)P(=O)(O)O	1.01
CN(C)c1ccc(/C=N\NC(=O)CCc2ccc(O)cc2)c(Cl)c1	1.01
C[C@](N)(Cc1ccc(O)c(O)c1)C(=O)O	0.974
O=C(O)CCC(=O)c1ccc(-c2ccccc2)cc1	0.972
CCOC(=O)CC(=O)Nc1scc(C)c1C(=O)OCC	0.923
O=c1[nH]cnc2ccc(Br)cc12	1.01
COc1ccc(/C=C/C(=O)O)cc1OC	1.06

###

normalized growth for assorted compounds
Procedure text: chemical genetic growth profiling, strain panel (AID 1159580);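 also: tested at 20 µM; growth read once vehicle control cultures reached saturation at 30 °C; 1 = growth at the plate median or of vehicle wells; lower values mean less growth of the strain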
Setup conditions: S. cerevisiae deletion strains, growth OD, locus YGL227W, strain vid30, stronger effect = lower value
Out of some 5,500 compounds screened, about 2,000 (36%) were called active. About 18% were inconclusive and are not listed. This is one part of the list.
Measure: normalized growth

Compound	Measure	Obs value
CCN(CC)CCOC(=O)C(Cc1cccc2ccccc12)CC1CCCO1 (stereo not given)	normalized growth	1
CCOC(=O)c1ccc(N)cc1	normalized growth	1.02
NCCCCN=C(N)N	normalized growth	1.02
O=C1N=C(O)CN1/N=C\c1ccc(-c2ccc([N+](=O)[O-])cc2)o1	normalized growth	0.986
O=C1OCCN1/N=C\c1ccc([N+](=O)[O-])o1	normalized growth	1
